Please respond with reported log10 ED50 for every item in the list.
Test system: white mice
assay.method.text: inhibition of maximal electroshock (MES) (Swinyard et al.)
Format: in vivo
stated.conditions: Mus musculus; oral, 1 hour before electroshock 50 Hz, 45 mA, 0.4 sec; total inhibition of tonic extensor convulsion
Use the decimal logarithm of ED50 (mg/kg).

{"compound": "CCN(CC)CCCOC1(c2ccccc2)CC2CCC1(C)C2(C)C (racemic)", "study.target": "white mice", "log10 ED50": 1.48}

List log10 ED50 for every entry below, keeping the order given.
1. CN(C)CCCOC1(Cc2ccccc2)CC2CCC1(C)C2(C)C (single isomer, unassigned) [Example 7]
2. CC(COC1(Cc2ccccc2)CC2CCC1(C)C2(C)C)CN(C)C (racemic)

// result
1.75
2.08

Hi! Can you tell me log10 ED50 for each of these compounds?
1. CC(C)N(CCCOC1(Cc2ccccc2)CC2CCC1(C)C2(C)C)C(C)C (racemic)
2. CC(COC1(c2ccc(Cl)cc2)CC2CCC1(C)C2(C)C)CN(C)C (single isomer, unassigned; (+))
3. CCN(CC)CCOC1(Cc2ccccc2)CC2CCC1(C)C2(C)C (single isomer, unassigned)
4. CCN(CC)CCOC1(Cc2ccc(Cl)cc2)CC2CCC1(C)C2(C)C (racemic)
5. CN(C)CCCOC1(Cc2ccccc2)CC2CCC1(C)C2(C)C (racemic) [Example 1]
6. CN1C(=O)OC(C)(C)C1=O [Trimethadion, 3,5,5-Trimethyl-2,4-oxazolidinedione, reference compound]
7. CCN(CC)CCCOC1(Cc2ccccc2)CC2CCC1(C)C2(C)C (racemic)

// result
2.58
2.15
1.48
1.86
2.11
0.69
2.08

###

Tested on: white mice
assay.method.text: analgesic effect, inhibition of acetic acid "writhing" reactions (Wirth et al.)
Format: in vivo
stated.conditions: therapeutic index, analgesic effect
reported.metric: Analgesic effect Therap.index
One number for each entry.

Some solved cases for reference:
{"compound": "CN(C)CCCOC1(c2cccs2)CC2CCC1(C)C2(C)C (racemic)", "study.target": "white mice", "Analgesic effect Therap.index": 10.0}
{"compound": "CCN(CC)CCOC1(Cc2ccc(Cl)cc2)CC2CCC1(C)C2(C)C (racemic)", "study.target": "white mice", "Analgesic effect Therap.index": 20.0}
{"compound": "CN(C)CCCOC1(c2ccccc2)CC2CCC1(C)C2(C)C (racemic)", "study.target": "white mice", "Analgesic effect Therap.index": 20.0}
{"compound": "CC1(C)C2CCC1(C)C(Cc1ccccc1)(OCCCN1CCN(Cc3ccccc3)CC1)C2 (racemic)", "study.target": "white mice", "Analgesic effect Therap.index": 10.0}
{"compound": "CCN(CC)CCCOC1(c2ccccc2)CC2CCC1(C)C2(C)C (racemic)", "study.target": "white mice", "Analgesic effect Therap.index": 10.0}

Kindly give each listed record's Analgesic effect Therap.index.
1. CCN(CC)CCOC1(Cc2ccccc2)CC2CCC1(C)C2(C)C (single isomer, unassigned)
2. CCN(CC)CCOC1(c2cccs2)CC2CCC1(C)C2(C)C (racemic)
3. CC(C)N(CCOC1(Cc2ccccc2)CC2CCC1(C)C2(C)C)C(C)C (racemic)
4. CN(C)CCCOC1(Cc2ccc(Cl)cc2)CC2CCC1(C)C2(C)C (racemic)
5. CC(C)N(CCCOC1(Cc2ccccc2)CC2CCC1(C)C2(C)C)C(C)C (racemic)

// result
1: 18.9; 2: 19.6; 3: 10.4; 4: 20.0; 5: 20.0
